- assay text: RAM signaling pathway blockade in yeast – S. cerevisiae, Pdr1DBD-CYC8 efflux-inhibited sensitized strain, primary screen (AID 1298);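 further: 0% = DMSO untreated cells without growth and 100% = 10 µM 1-NA-PP1 full growth; higher means more yeast growth rescued from 5-FOA killing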
- cond: S. cerevisiae cbk1-as DSE1-URA3 strain, 5-FOA growth OD615, 2 d; at 50 µM; stronger effect = higher value
RAM network inhibition values for the molecules below.
value type: RAM network inhibition (%)

molecule: O=C1CC(NCc2ccc3c(c2)OCO3)C(=O)N1CCc1ccccc1 (centres undefined)
value type: RAM network inhibition
recorded measurement: 0.51
//
molecule: COc1ccc(NC(=O)c2cnn3c(C(F)(F)F)cc(-c4ccco4)nc23)cc1OC
value type: RAM network inhibition
recorded measurement: 2.09
//
molecule: Cc1ccc(C(=O)NC(Cc2c[nH]c3ccccc23)C(=O)O)o1 (centres undefined)
value type: RAM network inhibition
recorded measurement: 6.26
//
molecule: CCCOc1ccc(NC2=CC(=O)CC(C)(C)C2)cc1
value type: RAM network inhibition
recorded measurement: 6.91

* * *

viability values for the compounds below.
- assay text: MRP1 drug-resistance reversers in H69AR cells – cell-based, doxorubicin co-treatment, pilot screen (AID 601)
- cond: H69AR cells + 2 uM doxorubicin, CellTiter-Glo, 72 h; measured here: viability with 2 uM doxorubicin; at 10 µM; stronger effect = lower value

compound: Cc1ccc(-n2c3c(cc(C(=O)NC4CCSC4=O)c2=O)C(=O)CC(C)(C)C3)cc1 (stereo unspecified)
viability, %: 70.7
--
compound: CCc1cccc(NC(=O)Cn2cc3c(n2)CCCC3)c1
viability, %: 90.3
--
compound: Nc1[nH]nc2nc(N3CCCC3)nc(-c3ccccc3)c12
viability, %: 88.6
--
compound: CCN(CC)C(=O)C1CCCc2c1[nH]c1ccc(Cl)cc21 (stereo unspecified)
viability, %: 70.6
--
compound: CCOc1ccc(-c2cc(CCCC(=O)N3CCN(c4ccc(OC)cc4)CC3)no2)cc1
viability, %: 70.2
--
compound: CC1CCCN(C(=O)c2cc3c(-c4ccc(Cl)cc4)nn(C)c3s2)C1 (stereo unspecified)
viability, %: 91.7

* * *

- assay text: doxorubicin toxicity protection in MRP-1 cells – H69AR cells, CellTiter-Glo, duplicate, MRP-1 activator project, pilot screen (AID 807);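 further: compound pretreatment 18-22 h then 72 h combined with doxorubicin; 0% = doxorubicin alone and 100% = vehicle without doxorubicin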
- cond: H69AR viability with doxorubicin, CellTiter-Glo luminescence; at 10 µM; stronger effect = higher value
value type: viability increase (%)

molecule: CCOC(=O)c1cccc(NC2c3ccccc3C(=O)N2Cc2ccco2)c1 (stereo not given)
recorded measurement: -5.15
//
molecule: COc1ccccc1S(=O)(=O)Cc1ccc(C(=O)N2CCN(c3ccccn3)CC2)o1
recorded measurement: -1.97
//
molecule: Cc1cccc(OCc2nc(C#N)c(NCCN(C)C)o2)c1
recorded measurement: -3.62
//
molecule: CCOc1ccc(NC(=O)C(C)Sc2nnc(C)n2C)cc1 (stereo not given)
recorded measurement: -0.82
//
molecule: O=C(NCCSCc1ccco1)c1ccc(CN2CCOCC2)cc1
recorded measurement: -1.57

* * *

- assay text: MRP1 drug-resistance reversers in H69AR cells – cell-based, doxorubicin co-treatment, pilot screen (AID 601)
- cond: H69AR cells, CellTiter-Glo, 72 h; compound alone cytotoxicity; at 10 µM
value type: viability

molecule: Cc1ccc(-c2cc(C(=O)Nc3cc(C)on3)c3ccccc3n2)c(C)c1
value type: viability
recorded measurement: 84.7%

molecule: Cn1c(=O)c2c(nc(SCCCC#N)n2Cc2c(F)cccc2Cl)n(C)c1=O
value type: viability
recorded measurement: 77.3%

molecule: Cc1cccc(C2CC(c3ccc(Cl)cc3)Nc3nc(N)nn32)c1 (stereo not drawn)
value type: viability
recorded measurement: 96.6%

molecule: CC1CCN(Cc2nc3c(c(=O)n(C)c(=O)n3C)n2Cc2cccc3ccccc23)CC1
value type: viability
recorded measurement: 84.9%

molecule: COC(=O)Cn1c(=NC(=O)CSCC(=O)Nc2cc(C)on2)sc2ccccc21
value type: viability
recorded measurement: 88.5%

molecule: Cc1ccnc(SCCn2c(N3CCN(Cc4ccccc4)CC3)nc3c2c(=O)[nH]c(=O)n3C)n1
value type: viability
recorded measurement: 87.5%

molecule: Cc1ccc(C(=O)Nc2c(C(=O)N3CCOCC3)cnn2-c2ccccc2)cc1
value type: viability
recorded measurement: 91.8%

molecule: COc1ccc(NC(=O)CSc2nnc(Cc3cccn3C)n2-c2ccc(F)cc2)cc1
value type: viability
recorded measurement: 94.8%

molecule: c1ccc(CN2CCN(CCCNc3ccc4nnc(-c5ccccc5)n4n3)CC2)cc1
value type: viability
recorded measurement: 86.3%

molecule: COc1ccccc1NC1=C(C)C(=O)CC1
value type: viability
recorded measurement: 88.7%

molecule: CC(=O)c1ccc(OCC(O)CN2CCN(Cc3ccc4c(c3)OCO4)CC2)cc1 (stereo not drawn)
value type: viability
recorded measurement: 88.7%

molecule: CCCCSc1nc2c(cnn2-c2ccc(F)cc2)c(=O)[nH]1
value type: viability
recorded measurement: 74%

molecule: O=C(Nc1ncc(Cc2ccccc2)s1)C1CCCO1 (stereo not drawn)
value type: viability
recorded measurement: 103%

molecule: CCOC(=O)C1=C(C)Nc2nnnn2C1c1ccc(OC)c(Br)c1 (stereo not drawn)
value type: viability
recorded measurement: 93.3%

molecule: CCOc1ccc(NS(=O)(=O)c2cc(Cl)ccc2OC)cc1
value type: viability
recorded measurement: 70.8%

molecule: Cc1[nH]c2ccccc2c(=O)c1CN1CCCCC1
value type: viability
recorded measurement: 90.5%

molecule: Cc1occc1C(=O)N1CCN(Cc2ccccc2)CC1
value type: viability
recorded measurement: 89.3%

molecule: CCOC(=O)N1CCN(C(=O)c2ccc3nc4ccsc4c(=O)n3c2)CC1
value type: viability
recorded measurement: 89.4%
